- assayTarget: NSUN6 (Homo sapiens)
- Construct: host or cells: E. coli Rosetta2
- procedureText: Microscale thermophoresis (MST) binding assay, NSUN6
- conditionDescription: MST dose-response curve, NSUN6; ≥ = lower limit, upper plateau not completely reached; read-out: KD,app
# pKd per record follows
Note on pKd: it is the negative log10 of concentration, concentration in mol/L.

Completed entries (count: 2):
>>> print(df.to_string())
                                   compound  readoutkind  readoutvalue
0  O=C(NCCN/C(O)=C1\N=CC=CC1=O)Nc1cccc2c1CNC2=O [Compound 1.4]          pKd          4.92
1  COc1ccc(C(=O)Nc2cccc(CN[C@H](CN)CO)c2)cc1 [Compound 2.8]          pKd          4.38

Data request: Entry Cn1cnc([C@@H]2CNC[C@H]2C(=O)N2CCC[C@@H](CNC(=O)[C@H]3CCCN3)C2)c1 (racemic) [Compound 2.4] : reported pKd = ?
Data returned: 4.79

----------
- assayTarget: DNMT2 (Homo sapiens)
- Construct: made in house; host or cells: E. coli Rosetta2
- Sequence (O14717 whole entry): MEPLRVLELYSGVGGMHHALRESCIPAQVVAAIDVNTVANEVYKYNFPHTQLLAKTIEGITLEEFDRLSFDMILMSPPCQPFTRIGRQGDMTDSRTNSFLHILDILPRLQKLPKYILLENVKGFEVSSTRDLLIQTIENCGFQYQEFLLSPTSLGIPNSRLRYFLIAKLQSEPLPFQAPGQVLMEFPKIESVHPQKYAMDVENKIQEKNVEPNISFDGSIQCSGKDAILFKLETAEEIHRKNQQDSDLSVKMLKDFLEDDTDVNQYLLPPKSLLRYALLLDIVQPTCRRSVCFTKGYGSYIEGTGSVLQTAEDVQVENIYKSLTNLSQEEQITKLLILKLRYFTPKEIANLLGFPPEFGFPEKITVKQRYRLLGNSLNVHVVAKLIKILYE
- procedureText: Microscale thermophoresis (MST) binding assay, DNMT2
- conditionDescription: MST dose-response curve, DNMT2, reference ligand
readoutKind: Kd (µM)
Express the result in µM but write the number alone.

Data request: Return reported Kd; argument: Nc1ncnc2c1ncn2[C@@H]1O[C@H](CSCC[C@H](N)C(=O)O)[C@@H](O)[C@H]1O [SAH, S-adenosyl-L-homocysteine, reference compound]
Data returned: 11.8

----------
- assayTarget: NSUN6 (Homo sapiens, UniProt Q8TEA1)
- Construct: host or cells: E. coli Rosetta2
- Sequence (Q8TEA1 whole entry): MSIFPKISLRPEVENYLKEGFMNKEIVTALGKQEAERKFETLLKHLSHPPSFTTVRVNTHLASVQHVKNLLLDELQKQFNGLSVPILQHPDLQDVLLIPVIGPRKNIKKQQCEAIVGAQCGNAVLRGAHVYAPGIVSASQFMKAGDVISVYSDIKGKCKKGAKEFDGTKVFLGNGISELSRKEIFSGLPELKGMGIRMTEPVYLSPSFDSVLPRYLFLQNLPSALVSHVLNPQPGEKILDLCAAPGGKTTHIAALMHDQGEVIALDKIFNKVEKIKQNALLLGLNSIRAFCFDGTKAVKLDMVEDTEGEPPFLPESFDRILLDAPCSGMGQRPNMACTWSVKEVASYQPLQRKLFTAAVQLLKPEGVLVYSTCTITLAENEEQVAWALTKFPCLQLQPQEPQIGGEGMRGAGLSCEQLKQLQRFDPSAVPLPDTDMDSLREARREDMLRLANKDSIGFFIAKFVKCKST
- procedureText: Microscale thermophoresis (MST) binding assay, NSUN6
- conditionDescription: MST dose-response curve, NSUN6, reference ligand; read-out: KD
readoutKind: pKd
// pKd: -log10(molar conc.)

Data request: For Nc1ncnc2c1ncn2[C@@H]1O[C@H](CSCC[C@H](N)C(=O)O)[C@@H](O)[C@H]1O [SAH, S-adenosyl-L-homocysteine, reference compound] , what is its reported pKd?
Data returned: 5.04
